# tested.system: GST-JAK2(808-1132) (Homo sapiens, UniProt O60674)
# Construct: GST-JAK2(808-1132); purchased Invitrogen (Carlsbad, USA) #4288
# Sequence (O60674 808-1132): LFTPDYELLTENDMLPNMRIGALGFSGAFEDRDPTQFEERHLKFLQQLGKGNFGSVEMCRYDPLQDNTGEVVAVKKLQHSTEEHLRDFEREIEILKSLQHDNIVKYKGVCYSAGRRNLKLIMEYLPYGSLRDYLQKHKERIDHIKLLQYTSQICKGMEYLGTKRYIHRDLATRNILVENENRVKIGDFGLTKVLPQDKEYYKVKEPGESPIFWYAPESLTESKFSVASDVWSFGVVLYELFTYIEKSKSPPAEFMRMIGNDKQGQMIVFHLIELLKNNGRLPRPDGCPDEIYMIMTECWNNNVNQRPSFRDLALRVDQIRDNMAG
# protocol.notes: JAK2 kinase assay (Caliper mobility shift, LabChip 3000)
# Format: biochemical
attribute.measured: IC50 (nM)

{"smiles.repr": "Cc1ccc(Nc2ncc3ccn(-c4ccc(C(=O)N5CCOCC5)c(F)c4)c3n2)cc1C", "attribute.measured": "IC50", "relation": "=", "recorded.number": 3.5}
{"smiles.repr": "CN1CCN(C(=O)c2cccc(Nc3ncc4ccn(-c5cc(F)c(CN6CCOCC6)c(F)c5)c4n3)c2)CC1", "attribute.measured": "IC50", "relation": "=", "recorded.number": 7.4}
{"smiles.repr": "Cc1cc(C#N)ccc1-n1ccc2cnc(Nc3ccc(N4CCN(C)CC4)nc3)nc21", "attribute.measured": "IC50", "relation": "=", "recorded.number": 19}
{"smiles.repr": "Cc1cc(Nc2ncc3ccn(-c4ccc(CN5CCS(=O)(=O)CC5)c(F)c4)c3n2)ccc1F", "attribute.measured": "IC50", "relation": "<", "recorded.number": 3}

----------
# tested.system: GST-JAK2(808-1132) (Homo sapiens, UniProt O60674)
# Construct: GST-JAK2(808-1132); purchased Invitrogen (Carlsbad, USA) #4288
# protocol.notes: JAK2 kinase assay (Caliper mobility shift, LabChip 3000)
# Type: biochemical
The following molecules are shown together with reported IC50 values.
attribute.measured: IC50 (nM)

{"molecule": "Fc1cc(-n2ccc3cnc(Nc4ccc(OC5CCOCC5)nc4)nc32)cc(F)c1CN1CCOCC1 [Example 515]", "tested.system": "GST-JAK2(808-1132) (Homo sapiens, UniProt O60674)", "relation": "≤", "recorded.number": 3}
{"molecule": "Cc1cc(Nc2ncc3ccn(-c4cc(F)c(CN5CCOCC5)c(F)c4)c3n2)ccc1[C@H]1CCCN1 [Example 346]", "tested.system": "GST-JAK2(808-1132) (Homo sapiens, UniProt O60674)", "relation": "≤", "recorded.number": 3}
{"molecule": "Cc1cc(Nc2ncc3ccn(-c4ccc(C(=O)N5CCN(C)CC5)c(F)c4)c3n2)ccc1F [Example 88]", "tested.system": "GST-JAK2(808-1132) (Homo sapiens, UniProt O60674)", "relation": "=", "recorded.number": 8.9}
{"molecule": "CCN1CCN(Cc2c(F)cc(-n3ccc4cnc(Nc5ccc(F)c(C)c5)nc43)cc2F)CC1 [Example 132]", "tested.system": "GST-JAK2(808-1132) (Homo sapiens, UniProt O60674)", "relation": "=", "recorded.number": 40.5}
{"molecule": "Fc1cc(-n2ccc3cnc(Nc4ccc([C@@H]5CNCCN5)cc4)nc32)cc(F)c1CN1CCOCC1 [Example 475]", "tested.system": "GST-JAK2(808-1132) (Homo sapiens, UniProt O60674)", "relation": "≤", "recorded.number": 3}
{"molecule": "C[C@@H]1CN(Cc2ccc(Nc3ncc4ccn(-c5cc(F)c(C(=O)N6CCOCC6)c(F)c5)c4n3)cc2)C[C@H](C)N1 [Example 255]", "tested.system": "GST-JAK2(808-1132) (Homo sapiens, UniProt O60674)", "relation": "=", "recorded.number": 6.9}
{"molecule": "N#Cc1ccc(Nc2ncc3ccn(-c4ccc(C(=O)N5CCOCC5)cc4)c3n2)cc1 [Example 237]", "tested.system": "GST-JAK2(808-1132) (Homo sapiens, UniProt O60674)", "relation": "=", "recorded.number": 7}
{"molecule": "Fc1cc(-n2ccc3cnc(Nc4ccc5c(c4)NCC5)nc32)cc(F)c1CN1CCOCC1 [Example 431]", "tested.system": "GST-JAK2(808-1132) (Homo sapiens, UniProt O60674)", "relation": "=", "recorded.number": 3.2}
{"molecule": "CC(C)Oc1ccc(Nc2ncc3ccn(-c4ccc(CN5CCS(=O)(=O)CC5)c(F)c4)c3n2)cc1 [Example 112]", "tested.system": "GST-JAK2(808-1132) (Homo sapiens, UniProt O60674)", "relation": "<", "recorded.number": 3}
{"molecule": "Fc1cc(-n2ccc3cnc(Nc4ccnc(CN5CCNCC5)c4)nc32)cc(F)c1CN1CCOCC1 [Example 372]", "tested.system": "GST-JAK2(808-1132) (Homo sapiens, UniProt O60674)", "relation": "=", "recorded.number": 4.7}
{"molecule": "CN1CCN(Cc2ccc(Nc3ncc4ccn(-c5ccc(S(C)(=O)=O)cc5)c4n3)cc2)CC1 [Example 38]", "tested.system": "GST-JAK2(808-1132) (Homo sapiens, UniProt O60674)", "relation": "=", "recorded.number": 4.5}
{"molecule": "CCN1CCN(Cc2ccc(-n3ccc4cnc(Nc5ccc(F)c(C)c5)nc43)cc2F)CC1 [Example 124]", "tested.system": "GST-JAK2(808-1132) (Homo sapiens, UniProt O60674)", "relation": "=", "recorded.number": 85}
{"molecule": "CC1(C)NCCN(c2ccc(Nc3ncc4ccn(-c5cc(F)c(CN6CCOCC6)c(F)c5)c4n3)cn2)C1=O [Example 492]", "tested.system": "GST-JAK2(808-1132) (Homo sapiens, UniProt O60674)", "relation": "=", "recorded.number": 2.2}
{"molecule": "COc1ccc(Nc2ncc3ccn(-c4ccc(C(=O)N5CCOCC5)cc4)c3n2)cn1 [Example 234]", "tested.system": "GST-JAK2(808-1132) (Homo sapiens, UniProt O60674)", "relation": "=", "recorded.number": 8.1}
{"molecule": "CC(C)Oc1ccc(Nc2ncc3ccn(-c4ccc(C(C)N5CCOCC5)cc4)c3n2)cc1 (racemic) [Example 193]", "tested.system": "GST-JAK2(808-1132) (Homo sapiens, UniProt O60674)", "relation": "=", "recorded.number": 8.4}
{"molecule": "CC(C)Oc1ccc(Nc2ncc3ccn(-c4ccc(CC(=O)N5CCOCC5)cc4)c3n2)cc1 [Example 102]", "tested.system": "GST-JAK2(808-1132) (Homo sapiens, UniProt O60674)", "relation": "<", "recorded.number": 3}
{"molecule": "CCOc1ccc(Nc2ncc3ccn(-c4ccc(CC(=O)N5CCN(CC)CC5)cc4)c3n2)cc1OCC [Example 165]", "tested.system": "GST-JAK2(808-1132) (Homo sapiens, UniProt O60674)", "relation": "<", "recorded.number": 3}
{"molecule": "Cc1ccc(Nc2ncc3ccn(-c4cc(F)c(CN5CCOCC5)c(F)c4)c3n2)cc1Cn1cc(CN(C)C)nn1 [Example 418]", "tested.system": "GST-JAK2(808-1132) (Homo sapiens, UniProt O60674)", "relation": "=", "recorded.number": 4.6}
{"molecule": "Cc1ccc(Nc2ncc3ccn(-c4ccc(C(=O)N5CCS(=O)(=O)CC5)c(F)c4)c3n2)cc1C [Example 291]", "tested.system": "GST-JAK2(808-1132) (Homo sapiens, UniProt O60674)", "relation": "<", "recorded.number": 3}
{"molecule": "Fc1cc(-n2ccc3cnc(Nc4ccc(CN5CCOCC5)cc4)nc32)cc(F)c1CN1CCOCC1 [Example 197]", "tested.system": "GST-JAK2(808-1132) (Homo sapiens, UniProt O60674)", "relation": "<", "recorded.number": 3}
{"molecule": "O=C(c1ccc(-n2ccc3cnc(Nc4cccnc4)nc32)cc1F)N1CCOCC1 [Example 224]", "tested.system": "GST-JAK2(808-1132) (Homo sapiens, UniProt O60674)", "relation": "=", "recorded.number": 8.5}
{"molecule": "O=C1CN(Cc2ccc(Nc3ncc4ccn(-c5cc(F)c(C(=O)N6CCOCC6)c(F)c5)c4n3)cc2)CCN1 [Example 259]", "tested.system": "GST-JAK2(808-1132) (Homo sapiens, UniProt O60674)", "relation": "<", "recorded.number": 3}
{"molecule": "CC(C)Oc1ccc(Nc2ncc3ccn(-c4ccc(CN5CCS(=O)(=O)CC5)c(Cl)c4)c3n2)cc1 [Example 113]", "tested.system": "GST-JAK2(808-1132) (Homo sapiens, UniProt O60674)", "relation": "=", "recorded.number": 4.2}
{"molecule": "Cc1ccc(Nc2ncc3ccn(-c4cc(F)c(CN5CCOCC5)c(F)c4)c3n2)cc1Cl [Example 128]", "tested.system": "GST-JAK2(808-1132) (Homo sapiens, UniProt O60674)", "relation": "=", "recorded.number": 120}
{"molecule": "CN1CCN(C(=O)c2ccc(Nc3ncc4ccn(-c5cc(F)c(CN6CCOCC6)c(F)c5)c4n3)cc2)CC1 [Example 2]", "tested.system": "GST-JAK2(808-1132) (Homo sapiens, UniProt O60674)", "relation": "=", "recorded.number": 3.2}
{"molecule": "Cc1ccc(Nc2ncc3ccn(-c4cc(F)c(CN5CCOCC5)c(F)c4)c3n2)cc1CN1CCN(C)CC1=O [Example 415]", "tested.system": "GST-JAK2(808-1132) (Homo sapiens, UniProt O60674)", "relation": "≤", "recorded.number": 3}
{"molecule": "Fc1cc(-n2ccc3cnc(Nc4ccnc(N5CCN(C6CC6)CC5)c4)nc32)cc(F)c1CN1CCOCC1 [Example 456]", "tested.system": "GST-JAK2(808-1132) (Homo sapiens, UniProt O60674)", "relation": "≤", "recorded.number": 3}
{"molecule": "Cc1cc(Nc2ncc3ccn(-c4cc(F)c(CN5CCS(=O)(=O)CC5)c(F)c4)c3n2)cnc1N1C[C@@H](C)N[C@@H](C)C1 [Example 429]", "tested.system": "GST-JAK2(808-1132) (Homo sapiens, UniProt O60674)", "relation": "≤", "recorded.number": 3}
{"molecule": "O=C1NC(c2ccc(Nc3ncc4ccn(-c5cc(F)c(CN6CCOCC6)c(F)c5)c4n3)cc2)CN2CCCCC12 (stereo not drawn) [Example 389]", "tested.system": "GST-JAK2(808-1132) (Homo sapiens, UniProt O60674)", "relation": "≤", "recorded.number": 3}
{"molecule": "Cc1ccc(Nc2ncc3ccn(-c4ccc(CN5CCOCC5)cc4)c3n2)cc1Cl [Example 119]", "tested.system": "GST-JAK2(808-1132) (Homo sapiens, UniProt O60674)", "relation": "=", "recorded.number": 88}
